targetOfAssay: OATP1B3 (Homo sapiens, UniProt Q9NPD5)
Sequence (Q9NPD5 whole entry): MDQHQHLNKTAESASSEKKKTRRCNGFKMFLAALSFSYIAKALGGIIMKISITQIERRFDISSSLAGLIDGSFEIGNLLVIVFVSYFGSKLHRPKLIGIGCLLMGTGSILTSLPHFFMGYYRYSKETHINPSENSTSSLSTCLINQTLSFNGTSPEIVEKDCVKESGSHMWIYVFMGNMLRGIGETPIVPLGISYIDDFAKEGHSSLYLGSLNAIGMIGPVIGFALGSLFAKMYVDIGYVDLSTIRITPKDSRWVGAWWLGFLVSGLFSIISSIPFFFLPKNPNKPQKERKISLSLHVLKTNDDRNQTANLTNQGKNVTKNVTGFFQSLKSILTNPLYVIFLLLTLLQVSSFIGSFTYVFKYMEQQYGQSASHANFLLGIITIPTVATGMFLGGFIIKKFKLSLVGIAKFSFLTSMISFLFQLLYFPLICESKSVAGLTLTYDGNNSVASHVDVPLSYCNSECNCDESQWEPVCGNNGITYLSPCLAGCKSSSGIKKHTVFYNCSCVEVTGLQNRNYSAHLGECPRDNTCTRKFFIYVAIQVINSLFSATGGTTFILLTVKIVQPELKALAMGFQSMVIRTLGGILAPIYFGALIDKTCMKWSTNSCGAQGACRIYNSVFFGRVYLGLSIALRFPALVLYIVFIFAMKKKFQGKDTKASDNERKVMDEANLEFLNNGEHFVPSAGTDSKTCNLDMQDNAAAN
method: Uptake into stable transfected OATP1B3 HEK 293 cells
Format: cell-based
conditionNotes: uptake into OATP1B3-HEK 293 cells
Please go through the items and note down their Inhibition Rifampicine.
Answers are plain numbers, in % inhibition.

Examples with their reported Inhibition Rifampicine follow.
compound	unitName	Inhibition Rifampicine
COCC(C(=O)O)N1CCN(CC(=O)[O-])CCN(C(Cc2ccc(OCC(F)(F)C(F)F)cc2)C(=O)[O-])CCN(CC(=O)[O-])CC1.[Gd+3] (stereo not shown)	% inhibition	98
CCOCCOc1ccc(CC(C(=O)O)N2CCN(CC(=O)[O-])CCN(CC(=O)[O-])CCN(CC(=O)[O-])CC2)cc1.[Gd+3] (stereo not shown)	% inhibition	94
CCOCCOCCOc1ccc(CCCC(C(=O)O)N2CCN(CC(=O)[O-])CCN(CC(=O)[O-])CCN(CC(=O)[O-])CC2)cc1.[Gd+3] (stereo not shown)	% inhibition	93
CCOCCOCCOCCOc1ccc(CC(C(=O)O)N2CCN(CC(=O)[O-])CCN(C(COC)C(=O)[O-])CCN(CC(=O)[O-])CC2)cc1.[Gd+3] (stereo not shown)	% inhibition	93
CCOCCOCCOc1ccc(CCC[C@H](C(=O)O)N2CCN([C@H](CO)C(=O)[O-])CCN([C@H](CO)C(=O)[O-])CCN([C@H](CO)C(=O)[O-])CC2)cc1.[Gd+3]	% inhibition	96

Could you tell me Inhibition Rifampicine for each of these compounds? They are listed below.
1. CCOCCOCCOc1ccc(CC(C(=O)O)N2CCN(CC(=O)[O-])CCN(CC(=O)[O-])CCN(CC(=O)[O-])CC2)nc1.[Gd+3] (stereo not shown)
2. CCOCCOCCOc1ccc(CC(C(=O)O)N2CCN(CC(=O)[O-])CCN(CC(=O)[O-])CCN(CC(=O)[O-])CC2)cn1.[Gd+3] (stereo not shown)
3. CCCOc1ccc(CCC(C(=O)O)N2CCN(CC(=O)[O-])CCN(CC(=O)[O-])CCN(CC(=O)[O-])CC2)cc1.[Gd+3] (stereo not shown)

[reply]
[71, 94, 94]

----------
Please go through the items and note down their Transmetallation stability.
method: Complex stability (transmetallation) against Zn2+ in phosphate buffer
conditionNotes: 72 hours, 2.5 mM Zn^2+, 26 mM phosphate buffer, 37° C., pH 7.4
Excerpt: If test compounds are instable under these conditions, transmetallation during this test would lead to the formation of the Zn^2+ complex of the test item, while Gd^3+ is released and precipitated as highly insoluble GdPO4.
Give bare numbers, in %.

Examples with their reported Transmetallation stability follow.
compound	Transmetallation stability [%]
CCCCOc1ccc(CCC[C@@H](C(=O)O)N2CCN(CC(=O)[O-])CCN(CC(=O)[O-])CCN(CC(=O)[O-])CC2)cc1.[Gd+3] [Example 31]	102
CCOCCOCCOc1ccc(CCCC(C(=O)O)N2CCN(C(CO)C(=O)[O-])CCN(C(CO)C(=O)[O-])CCN(C(CO)C(=O)[O-])CC2)cc1.[Gd+3] (centres unmarked) [Example 17]	98
CCOCCOCCOc1ccc(CC(C(=O)O)N2CCN(CC(=O)[O-])CCN(CC(=O)[O-])CCN(CC(=O)[O-])CC2)cc1.[Gd+3] (centres unmarked) [Example 2]	100
CCOCCOCCOc1ccc(CC(C(=O)O)N2CCN(CC(=O)[O-])CCN(C(C)C(=O)[O-])CCN(CC(=O)[O-])CC2)cc1.[Gd+3] (single isomer, unassigned) [Example 6]	102
CCOCCOc1ccc(CC(C(=O)O)N2CCN(CC(=O)[O-])CCN(C(CC)C(=O)[O-])CCN(CC(=O)[O-])CC2)cc1.[Gd+3] (single isomer, unassigned) [Example 8]	102

Could you tell me Transmetallation stability for each of these compounds? They are listed below.
1. CCOc1ccc(CCCC(C(=O)O)N2CCN(CC(=O)[O-])CCN(CC(=O)[O-])CCN(CC(=O)[O-])CC2)cc1.[Gd+3] (centres unmarked) [Example 28]
2. O=C([O-])CN(CCN(CC(=O)[O-])CC(=O)[O-])CCN(CC(=O)[O-])C(COCc1ccccc1)C(=O)[O-].[Gd+3].[H+].[H+] (centres unmarked) [RC2, gadobenic acid, reference compound]
3. CCOc1ccc(CC(CN(CCN(CC(=O)[O-])CC(=O)[O-])CC(=O)[O-])N(CC(=O)[O-])CC(=O)[O-])cc1.[Gd+3].[Na+].[Na+] (centres unmarked) [RC1, gadoxetate disodium, reference compound]
4. CCOCCOCCOc1ccc(CCCC(C(=O)O)N2CCN(CC(=O)[O-])CCN(CC(=O)[O-])CCN(CC(=O)[O-])CC2)cc1.[Gd+3] (centres unmarked) [Example 25]

[reply]
[101, 14, 44, 103]

Could you tell me Transmetallation stability for each of these compounds? They are listed below.
1. CCOCCOCCOc1ccc(CC(C(=O)O)N2CCN(C(CO)C(=O)[O-])CCN(C(CO)C(=O)[O-])CCN(C(CO)C(=O)[O-])CC2)cc1.[Gd+3] (centres unmarked) [Example 22]
2. CCOCCOCCOc1ccc(CCC[C@@H](C(=O)O)N2CCN([C@@H](CO)C(=O)[O-])CCN([C@@H](CO)C(=O)[O-])CCN([C@@H](CO)C(=O)[O-])CC2)cc1.[Gd+3] [Example 15]

[reply]
1: 96; 2: 101

----------
System: freshly isolated rat hepatocytes
method: Uptake into freshly isolated rat hepatocytes
conditionNotes: rat hepatocyte uptake; test item and Rifampicine 1:1, each 100 μM
Strictly below 90 % inhibition in Inhibition Rifampicine: criterion met. Otherwise: criterion not met.

// known answers, use as guide
compound	classAssignment
O=C([O-])CN1CCN(CC(=O)[O-])CCN([C@H](CO)[C@H](O)CO)CCN(CC(=O)[O-])CC1.[Gd+3] (racemic) [RC3, gadobutrol, reference compound]	criterion met
O=C([O-])CN1CCN(C(Cc2ccc(OCC(F)(F)C(F)F)cc2)C(=O)O)CCN(CC(=O)[O-])CCN([C@@H](CO)C(=O)[O-])CC1.[Gd+3] (mixture of isomers)	criterion not met
CCOCCOc1ccc(CC(C(=O)O)N2CCN(CC(=O)[O-])CCN(C(CC)C(=O)[O-])CCN(CC(=O)[O-])CC2)cc1.[Gd+3] (single isomer, unassigned) [Example 7]	criterion not met
O=C([O-])CN1CCN(CC(=O)[O-])CCN([C@H](Cc2ccc(OCC(F)(F)F)cc2)C(=O)O)CCN(CC(=O)[O-])CC1.[Gd+3]	criterion met
CCCCOc1ccc(CC(C(=O)O)N2CCN(CC(=O)[O-])CCN(CC(=O)[O-])CCN(CC(=O)[O-])CC2)cc1.[Gd+3] (stereo not drawn)	criterion not met

[ask] Take the compound CCOCCOCCOc1ccc(CC(C(=O)O)N2CCN(C(CO)C(=O)[O-])CCN(C(CO)C(=O)[O-])CCN(C(CO)C(=O)[O-])CC2)cc1.[Gd+3] (stereo not drawn) and say whether its Inhibition Rifampicine is less than 90 % inhibition.
[reply] criterion met

[ask] Follow-up entry: CCOCCOc1ccc(CC(C(=O)O)N2CCN(CC(=O)[O-])CCN(C(COC)C(=O)[O-])CCN(CC(=O)[O-])CC2)cc1.[Gd+3] (stereo not drawn)
[reply] criterion not met

[ask] Follow-up entry: CCOCCOCCOCCOc1ccc(CC(C(=O)O)N2CCN(CC(=O)[O-])CCN(C(CO)C(=O)[O-])CCN(CC(=O)[O-])CC2)cc1.[Gd+3] (stereo not drawn)
[reply] criterion not met

[ask] Follow-up entry: CCOc1ccc(CCCC[C@@H](C(=O)O)N2CCN(CC(=O)[O-])CCN(CC(=O)[O-])CCN(CC(=O)[O-])CC2)cc1.[Gd+3]
[reply] criterion not met

----------
Please go through the items and note down their r1 water.
method: Relaxivity measurements at 1.41 T in water
Type: physicochemical
conditionNotes: 37° C., normalized to Gd
Numbers only, in L/mmol/s.

Examples with their reported r1 water follow.
molecule	numericValue
O=C([O-])CN1CCN(CC(=O)[O-])CCN([C@H](Cc2ccc(OCC(F)(F)F)cc2)C(=O)O)CCN(CC(=O)[O-])CC1.[Gd+3]	3.7
CCOCCOCCOc1ccc(CCC[C@@H](C(=O)O)N2CCN(C(CCO)C(=O)[O-])CCN(C(CCO)C(=O)[O-])CCN(C(CCO)C(=O)[O-])CC2)cc1.[Gd+3] (mixture of isomers)	6.1
CCCCOc1ccc(CC(C(=O)O)N2CCN(CC(=O)[O-])CCN(CC(=O)[O-])CCN(CC(=O)[O-])CC2)cc1.[Gd+3] (centres unmarked)	4.3
CCOCCOc1ccc(CC(C(=O)O)N2CCN(CC(=O)[O-])CCN(C(CC)C(=O)[O-])CCN(CC(=O)[O-])CC2)cc1.[Gd+3] (single isomer, unassigned) [Example 8]	4.5
CCOCCOCCOc1ccc(CCC[C@@H](C(=O)O)N2CCN([C@@H](CO)C(=O)[O-])CCN([C@@H](CO)C(=O)[O-])CCN([C@@H](CO)C(=O)[O-])CC2)cc1.[Gd+3]	5.1

Could you tell me r1 water for each of these molecules? They are listed below.
1. CCOCCOCCOCCOc1ccc(CC(C(=O)O)N2CCN(CC(=O)[O-])CCN(C(CO)C(=O)[O-])CCN(CC(=O)[O-])CC2)cc1.[Gd+3] (centres unmarked)
2. CCOCCOCCOCCOc1ccc(CC(C(=O)O)N2CCN(CC(=O)[O-])CCN(CC(=O)[O-])CCN(CC(=O)[O-])CC2)cc1.[Gd+3] (centres unmarked)
3. CCOCCOCCOc1ccc(CC(C(=O)[O-])N2CCN(CC(=O)[O-])CCN(C(CC)C(=O)O)CCN(CC(=O)[O-])CC2)cc1.[Gd+3] (centres unmarked)
4. CCOCCOCCOc1ccc(CC(C(=O)O)N2CCN(CC(=O)[O-])CCN(C(C)C(=O)[O-])CCN(CC(=O)[O-])CC2)cc1.[Gd+3] (single isomer, unassigned) [Example 6]
5. CCOCCOCCOc1ccc(CC(C(=O)O)N2CCN(CC(=O)[O-])CCN(CC(=O)[O-])CCN(CC(=O)[O-])CC2)nc1.[Gd+3] (centres unmarked)
6. CCOCCOCCOCCOc1ccc(CC(C(=O)O)N2CCN(CC(=O)[O-])CCN(C(COC)C(=O)[O-])CCN(CC(=O)[O-])CC2)cc1.[Gd+3] (centres unmarked)

[reply]
5.0
4.5
4.8
4.3
4.5
5.2
